B1: TPR 5TU (parent)
chain: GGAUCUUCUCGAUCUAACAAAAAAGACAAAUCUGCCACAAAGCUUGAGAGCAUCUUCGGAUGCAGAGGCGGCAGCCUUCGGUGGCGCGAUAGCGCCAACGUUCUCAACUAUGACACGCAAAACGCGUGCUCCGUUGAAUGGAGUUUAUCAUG

- Variants of: B1
- assay-notes: polymerase ribozyme fitness, log enrichment relative to wild type (log ratio); higher = more active; in vitro selection for triplet polymerase activity
Variants at the floor of the assay were thinned out.
assay-endpoint: polymerase ribozyme fitness (log ratio)

Ask | Look up polymerase ribozyme fitness (log ratio): U135G G141U U146G
Reply | ≤ -4.2

Ask | Look up polymerase ribozyme fitness (log ratio): U31C C79G U139C U144G
Reply | ≤ -4.2

Ask | Look up polymerase ribozyme fitness (log ratio): C63U G83C U102A A142G A150C
Reply | ≤ -4.2

Ask | Look up polymerase ribozyme fitness (log ratio): U55A C57U C85G G94C C99G C149G
Reply | ≤ -4.2

Ask | Look up polymerase ribozyme fitness (log ratio): A41G A49C U82G U90G G133A
Reply | ≤ -4.2

Ask | Look up polymerase ribozyme fitness (log ratio): A29U U77A G80A G92A U148C
Reply | ≤ -4.2

Ask | Look up polymerase ribozyme fitness (log ratio): A16U A37U C76G U82G A89G A91G G143U
Reply | ≤ -4.2

Ask | Look up polymerase ribozyme fitness (log ratio): C51U C108U
Reply | -3.72

Ask | Look up polymerase ribozyme fitness (log ratio): C118G C129U
Reply | -1.77

Ask | Look up polymerase ribozyme fitness (log ratio): C8U G88U C93U
Reply | -4.14

Ask | Look up polymerase ribozyme fitness (log ratio): C35A C57U C93G U134A U139A
Reply | ≤ -4.2

Ask | Look up polymerase ribozyme fitness (log ratio): A26U A39C U45A A60C U61G G83C U102C U111G
Reply | ≤ -4.2

Ask | Look up polymerase ribozyme fitness (log ratio): C5A C14G A37U A52C C85G C99U G140U
Reply | ≤ -4.2

Ask | Look up polymerase ribozyme fitness (log ratio): A39C U82G G83C G133C
Reply | ≤ -4.2

Ask | Look up polymerase ribozyme fitness (log ratio): A24C G84A
Reply | ≤ -4.2

Ask | Look up polymerase ribozyme fitness (log ratio): A21U C36G C51U U55C G92U U148A
Reply | ≤ -4.2
